List of protein stability index values.
B1: BTBD1 (parent)
chain: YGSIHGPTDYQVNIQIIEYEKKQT

Variants of: B1
Assay: protein stability index of a GFP-peptide fusion (GPS, HEK-293T) (PSI 1-6); higher = more stable;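 note: lentivirally expressed fusions sorted by FACS into six bins by GFP to DsRed ratio, PSI derived from sequencing read proportions per bin multiplied by bin number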
Conditions: c terminus: a fixed tail appended
Form rule: numeric answer, no unit written next to it.

As a guide, the following entries are already answered.
G6L : 2.6
N13R : 2
H5I : 2.67
I17F : 2.46
Q15G : 2.47
Y10V : 2.77

Look up protein stability index: "S3V" 2.57

Look up protein stability index: "E18Y" 3.61

Look up protein stability index: "E20Y" 1.88

Look up protein stability index: "S3L" 2.94

Look up protein stability index: "T8H" 2.38

Look up protein stability index: "D9L" 3.37

Look up protein stability index: "I16S" 3.58

Look up protein stability index: "G6N" 3.4

Look up protein stability index: "P7N" 2.84

Look up protein stability index: "Y1I" 2.92

Look up protein stability index: "Q11H" 2.48
